Quick reference for normalized growth among some molecules
assay: chemical genetic growth profiling, strain panel (AID 1159580);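 note: tested at 20 µM; growth read once vehicle control cultures reached saturation at 30 °C; 1 = growth at the plate median or of vehicle wells; lower values mean less growth of the strain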; conditions: S. cerevisiae deletion strains, growth OD, locus YBR135W, strain CKS1, stronger effect = lower value
Among all 5,500 compounds or so, about 2,000 (36%) were called active. Another 18% or so got no clear call; they are omitted. This is one part of the list.
Simply state the number, no unit and no words.

Some entries whose results are on file:
[[record]]
molecule = "O=C1/C(=C/c2c(F)cccc2Cl)Cc2ccccc21"
val = 0.959

[[record]]
molecule = "Cc1cc(C(=O)O/N=C(/N)c2ccc(C(C)(C)C)cc2)no1"
val = 0.975


Given Clc1ccc(-c2noc(CSC3=NCCN3)n2)cc1 , state its recorded normalized growth.
0.98

Given CC1(C)C/C(=N/Nc2ccc(C(F)(F)F)cc2)c2cc(C(C)(C)C)c(O)c(O)c2O1 , state its recorded normalized growth.
0.977

Given CCCCCc1ccc(S(=O)(=O)Nc2ccc3c(c2)C(=O)OC3)cc1 , state its recorded normalized growth.
0.981

----------
test: chemical genetic growth profiling, strain panel (AID 1159580); settings: S. cerevisiae deletion strains, growth OD, strain wtn01, stronger effect = lower value
The whole screen tested about 5,500 compounds, of which about 2,000 (36%) were called active. Another 18% or so got no clear call; they are omitted. The list shows a part of the results.
Quick reference for normalized growth among some compounds

Some entries whose results are on file:
[[record]]
compound = "CC(=O)O[C@H]1CC[C@@]2(C)C(=CCC3C2CC[C@@]2(C)C3CC[C@@H]2C(C)CCCC(C)C)C1 (stereo partly specified)"
val = "1.04 (inactive)"

[[record]]
compound = "COc1cc(C(=O)O)cc(OC)c1O"
val = "1 (inactive)"


Given COc1ccc(-c2cc(C(F)F)nn2-c2ccc(S(N)(=O)=O)cc2)cc1F , state its recorded normalized growth.
1.02 (inactive)

----------
experiment: chemical genetic growth profiling, strain panel (AID 1159580); conditions: S. cerevisiae deletion strains, growth OD, locus YGL167C, strain pmr1
About 2,000 (36%) of roughly 5,500 compounds were called active. Roughly 18% stayed inconclusive and do not appear here. Rule as the data show it: active = normalized growth mostly below about 0.91 (no sharp cut-off); inconclusive = no clear call, values can overlap the other calls; inactive = mostly above about 0.92. The list shows a part of the results.
Allowed answers: active, inactive

Worked cases, answers included:
[[record]]
molecule = "Oc1ccc(/C=C/c2cc(O)cc(O)c2)cc1"
assigned_category = "inactive"

[[record]]
molecule = "O=C1N=C(O)CN1/N=C\\c1ccc(-c2ccc([N+](=O)[O-])cc2)o1"
assigned_category = "inactive"

[[record]]
molecule = "CC[C@]12CCCN3CCc4c(n(c5ccccc45)C(=O)C1)[C@@H]32"
assigned_category = "inactive"

[[record]]
molecule = "O=C(O)CNCP(=O)(O)O"
assigned_category = "inactive"

[[record]]
molecule = "CCn1cc(C(=O)O)c(=O)c2cnc(N3CCCC3)nc21"
assigned_category = "inactive"

[[record]]
molecule = "OC/C=C/c1ccc(O)c(O)c1"
assigned_category = "inactive"

[[record]]
molecule = "CCn1cc(C(=O)O)c(=O)c2cnc(N3CCNCC3)nc21"
assigned_category = "inactive"

[[record]]
molecule = "CCOC(=O)C1=C[C@]2(CC)CCCN3CCc4c(n1c1ccccc41)[C@@H]32"
assigned_category = "inactive"


Which outcome did this test record for the molecule c1ccc2[nH]c(-c3cscn3)nc2c1 ?
inactive

Which outcome did this test record for the molecule CC[C@]12CCCN3CCc4c(n(c5ccccc45)[C@](O)(C(=O)OC)C1)[C@@H]32 ?
inactive

----------
assay: chemical genetic growth profiling, strain panel (AID 1159580); conditions: S. cerevisiae deletion strains, growth OD, locus YDL005C, strain med2, stronger effect = lower value
Among all 5,500 compounds or so, about 2,000 (36%) were called active. Another 18% or so got no clear call; they are omitted. The list shows a part of the results.
Quick reference for normalized growth among some compounds
Simply state the number, no unit and no words.

[[record]]
compound = "c1ccc2[nH]c(-c3cscn3)nc2c1"
val = 1.02


Given O=C(O)c1cc(=O)c(O)c2c(O)c(O)c(O)cc2c1 , state its recorded normalized growth.
0.953

Given O=C(O)c1cc(O)c(O)c(O)c1 , state its recorded normalized growth.
1.02

Given CC(COc1ccccc1)N(CCCl)Cc1ccccc1 (configuration not stated) , state its recorded normalized growth.
0.972

Given C#C[C@]1(O)CCC2C3CCc4cc(OC)ccc4C3CC[C@@]21C (some centres not stated) , state its recorded normalized growth.
0.985

Given CC12CCCC(O)(C1)C1CC(C)(C)C1CC2 (configuration not stated) , state its recorded normalized growth.
1

Given COP(=S)(OC)Oc1ccc(SC)c(C)c1 , state its recorded normalized growth.
1.01

Given CN(C)CCCO[C@H]1[C@@H](C(O)CO)OC2OC(C)(C)O[C@@H]21 (some centres not stated) , state its recorded normalized growth.
0.995

Given C[C@H](COc1ccccc1)N[C@H](C)[C@H](O)c1ccc(O)cc1 , state its recorded normalized growth.
0.999

Given CCCN(CCC)CCc1cccc2c1CC(=O)N2 , state its recorded normalized growth.
0.977

Given CCOP(=S)(OCC)Oc1ccc2c(C)c(Cl)c(=O)oc2c1 , state its recorded normalized growth.
0.959

Given c1cc2c(cc1[C@H]1OC[C@H]3[C@@H]1CO[C@H]3c1ccc3c(c1)OCO3)OCO2 , state its recorded normalized growth.
0.915

----------
assay: chemical genetic growth profiling, strain panel (AID 1159580);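 note: tested at 20 µM; growth read once vehicle control cultures reached saturation at 30 °C; 1 = growth at the plate median or of vehicle wells; lower values mean less growth of the strain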; details: S. cerevisiae deletion strains, growth OD, locus YPL240C, strain hsp82, stronger effect = lower value
In all, about 5,500 compounds went through this assay and about 2,000 (36%) were called active. Inconclusive results (about 18%) are left out. This is one part of the list.
Quick reference for normalized growth among some compounds
Simply state the number, no unit and no words.

Some entries whose results are on file:
[[record]]
compound = "NC(=O)c1cc[n+](CC2=C(C(=O)O)N3C(=O)C(NC(=O)C(c4ccccc4)S(=O)(=O)[O-])C3SC2)cc1 (stereo not given)"
val = 0.987

[[record]]
compound = "CC1=CC(=O)CC(C)(C)C1(O)/C=C/C(C)=C\\C(=O)O (stereo not given)"
val = 1.04

[[record]]
compound = "COc1ccccc1OCC(O)CN1CCN(CC(=O)Nc2c(C)cccc2C)CC1 (stereo not given)"
val = 1


Next compound, please.
Given COc1ccc(/C=C/C(=O)c2ccc(O)cc2O)cc1 , state its recorded normalized growth.
0.44

----------
experiment: chemical genetic growth profiling, strain panel (AID 1159580);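 note: tested at 20 µM; growth read once vehicle control cultures reached saturation at 30 °C; 1 = growth at the plate median or of vehicle wells; lower values mean less growth of the strain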; settings: S. cerevisiae deletion strains, growth OD, locus YDL040C, strain nat1, stronger effect = lower value
In all, about 5,500 compounds went through this assay and about 2,000 (36%) were called active. Not shown: some 18% with an inconclusive outcome. The list shows a part of the results.
value_kind: normalized growth
Simply state the number, no unit and no words.

Some entries whose results are on file:
[[record]]
compound = "CCn1cc(C(=O)O)c(=O)c2cc3c(cc21)OCO3"
val = 0.985

[[record]]
compound = "O=C(O)c1cc(O)c(O)c(O)c1"
val = 1.02


Given CCN(CC)CCOC(=O)C(Cc1cccc2ccccc12)CC1CCCO1 (stereo unspecified) , state its recorded normalized growth.
1.01

Given CCn1cc(C(=O)O)c(=O)c2cnc(N3CCCC3)nc21 , state its recorded normalized growth.
0.991

Given O=C(O)c1cc(=O)c(O)c2c(O)c(O)ccc2c1 , state its recorded normalized growth.
1.01

Given CCn1cc(C(=O)O)c(=O)c2cnc(N3CCNCC3)nc21 , state its recorded normalized growth.
1

----------
Quick reference for normalized growth among some compounds
test: chemical genetic growth profiling, strain panel (AID 1159580);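 note: tested at 20 µM; growth read once vehicle control cultures reached saturation at 30 °C; 1 = growth at the plate median or of vehicle wells; lower values mean less growth of the strain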; settings: S. cerevisiae deletion strains, growth OD, locus YMR058W, strain fet3, stronger effect = lower value
About 2,000 (36%) of roughly 5,500 compounds were called active. Roughly 18% stayed inconclusive and do not appear here. The list shows a part of the results.
Simply state the number, no unit and no words.

[[record]]
compound = "Nc1ccc(S(=O)(=O)Nc2nccs2)cc1"
value_kind = "normalized growth"
val = 1.02

[[record]]
compound = "CCOC(=O)C1=C[C@]2(CC)CCCN3CCc4c(n1c1ccccc41)[C@@H]32"
value_kind = "normalized growth"
val = 1.02

[[record]]
compound = "S=c1[nH]c2ccccc2s1"
value_kind = "normalized growth"
val = 0.947

[[record]]
compound = "CC1=CC(=O)CC(C)(C)C1(O)/C=C/C(C)=C\\C(=O)O (configuration not stated)"
value_kind = "normalized growth"
val = 1.02

[[record]]
compound = "NCc1ccc(S(N)(=O)=O)cc1"
value_kind = "normalized growth"
val = 1.02


Given COc1ccc(C[C@H](N)C(=O)N[C@@H]2[C@@H](CO)OC(n3cnc4c(N(C)C)ncnc43)[C@@H]2O)cc1 (some centres not stated) , state its recorded normalized growth.
1

Given CC[C@]12CCCN3CCc4c(n(c5ccccc45)C(=O)C1)[C@@H]32 , state its recorded normalized growth.
1.01

Given COS(C)(=O)=O , state its recorded normalized growth.
1.02

Given c1ccc2[nH]c(-c3cscn3)nc2c1 , state its recorded normalized growth.
0.993

Given CC[C@]12CCCN3CCc4c(n(c5ccccc45)[C@](O)(C(=O)OC)C1)[C@@H]32 , state its recorded normalized growth.
0.983

Given CS(=O)(=O)OCCCCOS(C)(=O)=O , state its recorded normalized growth.
1.01

Given Nc1nccs1 , state its recorded normalized growth.
0.988
